Each recorded value in this set is attributed to the DeepSol protein solubility set.

procedure text: soluble on expression in E. coli; label from the status in PepcDB or PDB records
endpoint label: soluble on expression in E. coli

These recorded examples may help you get a feel for the data.
- input sequence: "PVLTQTSEQAPSSAPRDVQARMLSSTTILVQWKEPEEPNGQIQGYRVYYTMDPTQHVNNWMKHNVADSQITTIGNLVPQKTYSVKVLAFTSIGDGPLSSDIQVITQTG"
  soluble on expression in E. coli: "soluble"
- input sequence: "GRLDHNVEAAMGDETKYARINANRSVSNDYQDGNGDSVHSSWERWNADLALGWKPTQDSWIELKGGKGNGEAAYAGRTMDGTQFQRESLGLHAEQKNLTDVIKKVEAQVDYSYNDHIMDNYKMRTPPMMPMAMEVTRRTLNARAAITTEWDRLNVISGVDSQRNKHAGNMYMRDANPIPPLDGDLRFESYGAFSEWTYRLNP"
  soluble on expression in E. coli: "not soluble"
- input sequence: "MSLFPNYEFSFRPIARKFVRSLVTSHGIWEVREAIILRLTDTTGKVGWGEIAPISWFGSETLAQALDFCRQLPEEITQEIIFSIPDDLPACQFGFESALEAMGSGEDVTITNAQFSALLPAGEAALHQWQSLWDEGYRTFKWKIAVGEVAQELRIFDSLTQILPASAKLRLDANGGLSYPEAHLWLQACDNLPVEVEFIEQPLPVEQFSQMLELSEAYPTAIALDESVANLKQLAACYAQGWRDVFVIKPAIAGSPSRLRQFCQQHEIDAVFSSVFETAIARKASLQLAAELSRDNRAVGFGVNHLFHQEAENWLQSLWNNPEGHHHHHH"
  soluble on expression in E. coli: "soluble"
- input sequence: "MINSPRVCIQVQSVYIEAQSSPDNERYVFAYTVTIRNLGRAPVQLLGRYWLITNGNGRETEVQGEGVVGVQPLIAPGEEYQYTSGAIIETPLGTMQGHYEMIDENGVPFSIDIPVFRLAVPTLIH"
  soluble on expression in E. coli: "soluble"
- input sequence: "SPSCSPQQASKAEENGSNSFMHSMVPQLEWQMETTQSLVDSYVAIVNKTVWDLMVGLTPKTIMHLMINNNKEFIFSELLANLYLHGDKNMLMEESAEQAQRS"
  soluble on expression in E. coli: "soluble"

Okay, next one:
The value of soluble on expression in E. coli measured for the sequence MGSDKIHHHHHHMNVLITGMNGTVAPVLADVFRSHHYDITAWDRSVVSTTDSAVMEAFIDRVQPDLLLHIGMGPAEFAETLARLSFERNIPFLFTSTASVYSDEQKGPHDPAIVPAATDEYGAYKRTCERLIQAVNPDAYIVRIGWQIGQAAGSNNMIDYLERHAIAGPIPASTQWYPSCAFLEDTAQTLYTIVTTYTPGLYLANGNASHSFFDIVTALNILHGSKWHITEDNSMTRDDRMTDSRVVIRPISEHLSFVH turned out to be not soluble
